These data points were gathered from the supplement of paper PMC6757056.

B1: library; a variant is named by its letters at N, in order (parent)
chain: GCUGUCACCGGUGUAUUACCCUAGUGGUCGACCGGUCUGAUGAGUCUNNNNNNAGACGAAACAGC

variants of: B1; assay: FACS-Seq fitted mean relative fluorescence mCherry/BFP without ligand (log10 relative fluorescence); ligand: hypoxanthine (xanthine aptamer); higher = higher reporter protein expression; conditions: HEK293T, ligand present: no
property: FACS-Seq fitted mean (log10)
One number for each entry.

A selection of reference data follows.
AAAUCA ... 0.598
GAGCCA ... -0.0202
GUAGGG ... 0.143

Please give FACS-Seq fitted mean (log10) for each item listed below.
1. AAUGCG
2. GCAGUC
3. GAUGUG

[-0.0193, 0.791, 0.2]
